- Test system: TRPC4 beta (transient receptor potential cation channel C4), mouse
- assay_summary: potentiation of DAMGO EC20 TRPC4 response – cell-based, Fluo-4, HEK293 TRPC4beta/mu-opioid, confirmation (AID 2555)
- conditions_used: DAMGO EC20, Fluo-4 calcium flux, at 10 µM
Active and inactive are the calls of the source.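 The calls were made as follows: active = primary screen hit whose calcium fluorescence ratio, in both repeats, exceeds the weak agonist control mean by 3 SD; inactive = the rest.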
Your response should consist of one outcome taken from yes = active, no = inactive

// below: answered compounds
Fc1ccc(-c2nn(-c3ccccc3)cc2CNCc2ccccc2)cc1; no
COc1ccc(C(CNC(=O)c2cccc(Br)c2)N2CCCC2)cc1 (stereo unspecified); no
CCN(CC)c1nc2ccccc2c(N)c1-c1ccccc1; no
N=c1c2c(n(Cc3ccc(Br)cc3)c3c1CCC3)CCCC2; no
NC(=S)N/N=C1/CCSc2ccc3ccccc3c21; yes
Cc1ccc(Sc2ccc(CO)cc2[N+](=O)[O-])cc1; no
Cc1cccc(OCCC(=O)NCC(c2ccccc2)N(C)C)c1 (stereo unspecified); no
O=C(C1=C[C@H](c2ccc(C(F)(F)F)cc2)C[C@H](OCCCCO)O1)N1CCN(Cc2ccccc2)CC1; no
Cc1cc(C)c(S(=O)(=O)N2CCN(C)CC2)c(C)c1; no
CC(=O)N1CC(c2ccccc2)C(c2ccc(Cl)cc2)=N1 (stereo unspecified); no

Continue with the next compound.
Q: Per the records of this test, what outcome belongs to NS(=O)(=O)c1ccc(CCNCc2ccccc2OCc2ccc(F)cc2)cc1 ?
A: no

---

- Tested on: TRPC4 beta (transient receptor potential cation channel C4), mouse
- assay_summary: TRPC4 cation channel opening, retest – cell-based, Fluo4 calcium, HEK293 TRPC4beta/mu-opioid, duplicates, 10 µM, confirmation (AID 2426)
- conditions_used: Fluo4 calcium fluorescence, at 10 µM
Calls of active or inactive are those of the source.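 How the source made its calls: active means fluorescence ratio normalized to control raised more than 50% in primary screen plus both repeat runs; inactive means the rest.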
Assign a class; possible classes are Yes = active, No = inactive

Look over these answered cases.
Cn1nnnc1SCCNCc1ccccc1OCc1ccc(Cl)cc1; No
COC(=O)[C@@]12CCCCN1[C@H](c1ccc(-c3cccc(Cl)c3)c(OC)c1)[C@H]1C(=O)N(C)C(=O)[C@H]12; No
Cc1cc(Nc2ccccc2)nc2cc(O)ccc12; No
CCCN(CCC)CCCNC(=O)c1ccc2c(Cl)c3c(nc2c1)CCC3; Yes
CCOC(=O)C1(CC2CC2)CCN(Cc2cc(Cl)c(O)c(OC)c2)CC1; No

Q: Tell me the recorded outcome of this test for CNCCOc1ccc(Cl)c(Cl)c1 .
A: Yes

Q: Just curious, what result did CCOc1ccc(S(=O)(=O)N2CCN(C(=S)NC3CC3)CC2)cc1 get here?
A: No

Q: Recorded call for Cn1c(=O)c2c(nc(CN3CCc4ccccc4C3)n2Cc2ccccc2)n(C)c1=O ?
A: No

Q: Please state the recorded outcome for this compound: c1ccc(Cc2nc3ccccc3n2Cc2ccccc2)cc1
A: No

Q: Any idea what this test logged for COCCn1c(SCC(=O)Nc2ccccc2OC)nc2c([nH]c3ccccc32)c1=O ?
A: No

Q: What outcome does the record of this test show for CCC(C)NCCOCCOc1ccccc1-c1ccccc1 (stereo unspecified) ?
A: No

---

- Test system: TRPC4 (transient receptor potential cation channel C4 beta), mouse
- assay_summary: potentiation of DAMGO EC20 TRPC4 response – cell-based, second round, Fluo-4, HEK293 TRPC4beta/mu-opioid, 1 µM, confirmation (AID 2554)
- conditions_used: DAMGO EC20, Fluo-4 calcium flux, at 1 µM
Calls of active or inactive are those of the source.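 Rule for the calls: active = primary screen hit whose fluorescence ratio, in both repeats, exceeds the weak agonist control mean by 3 SD; inactive = the rest.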
Tick one outcome: yes (1) = active, no (0) = inactive

Cc1cccc(NC(=O)CSc2nnc(-c3cc(C)n(-c4ccccc4)c3C)o2)c1C; no (0)
CCCCN(C)CCNC(=O)c1c[nH]c2ccc(S(=O)(=O)N(CC)CC)cc2c1=O; no (0)
Cc1ccc(-c2nnc(N3CCC(C)CC3)c3ccccc23)cc1C; yes (1)
CCOC(=O)c1c(NC(=O)COC(=O)CCOc2ccc(OCC)cc2)sc(C(=O)N(C)C)c1C; yes (1)
CCOc1ccc(NC(=O)c2c[nH]n3c(=O)cc(C4CCN(C(=O)OC(C)(C)C)CC4)nc23)cc1; no (0)

Q: What was the test verdict on CCOP(=O)(OCC)c1nc(-c2ccc(Cl)cc2Cl)oc1N1CCCCC1 ?
A: no (0)

Q: State the result this test recorded for COc1ccc(C(=O)CN2CCN(CCN3C(=O)c4cccc5cccc(c45)C3=O)CC2)cc1 .
A: yes (1)

Q: Called result for CCCn1c(NCc2ccc(C)o2)nc2ccccc21
A: no (0)

Q: Hello, I am checking results. What call was entered for COc1ccc(-c2cc(C(F)(F)F)nc(N3CCN(C)CC3)n2)cc1 ?
A: no (0)

Q: Outcome logged for COc1cccc(C(=O)Oc2ccc(/C=N/Nc3ccc(C(=O)O)cc3)cc2OC)c1 in this assay:
A: no (0)
